This section presents compounds with their documented MIC values.
System: Fusarium tucumaniae
Procedure Text: Antifungal activity against Fusarium tucumaniae measured after 24 to 48 hrs by turbidimetry
Format: functional
Recorded Conditions: time 24-48 hrs

[
  {
    "Mol Smiles": "CC1(C)CC[C@]2(C)CC[C@]3(C)[C@H]4CC=C5[C@@H](CC[C@H](O)C5(C)C)[C@]4(C)CC[C@@]3(C)[C@@H]2C1",
    "Measured On": "Fusarium tucumaniae",
    "MIC, µM": 117
  },
  {
    "Mol Smiles": "CC1(C)CC[C@]2(C)CC[C@]3(C)[C@H]4CC=C5[C@@H](Cc6cnn(-c7nc8ccccc8s7)c6C5(C)C)[C@]4(C)CC[C@@]3(C)[C@@H]2C1",
    "Measured On": "Fusarium tucumaniae",
    "MIC, µM": 85.9
  }
]

====

Tested on: Fusarium tucumaniae
Procedure Text: Antifungal activity against Fusarium tucumaniae measured after 24 to 48 hrs by turbidimetry
Format: functional
Recorded Conditions: time 24-48 hrs
Endpoint Label: MIC (µM)

[
  {
    "Molecule": "CC1(C)CC[C@]2(C)CC[C@]3(C)[C@H]4CC=C5C(=Cc6nc7ccccc7nc6C5(C)C)[C@]4(C)CC[C@@]3(C)[C@@H]2C1",
    "Unit Label": "µM",
    "Reported Value": 98.2
  },
  {
    "Molecule": "CC1(C)CC[C@]2(C)CC[C@]3(C)c4ccc5c(c4CC[C@@]3(C)[C@@H]2C1)C=CC(=O)C5(C)C",
    "Unit Label": "µM",
    "Reported Value": 123
  },
  {
    "Molecule": "CC1(C)CC[C@]2(C)CC[C@]3(C)[C@H]4CC=C5[C@@H](Cc6sc(N)nc6C5(C)C)[C@]4(C)CC[C@@]3(C)[C@@H]2C1",
    "Unit Label": "µM",
    "Reported Value": 107
  },
  {
    "Molecule": "C=C(C)C1=CC[C@H]2[C@@](C)(CC[C@@]3(C)[C@@H]4CC(C)(C)CC[C@]4(C)CC[C@]23C)[C@@H]1CCC#N",
    "Unit Label": "µM",
    "Reported Value": 59.2
  },
  {
    "Molecule": "Cc1cc2c(c(C)c1O)CC[C@H]1[C@@]2(C)CC[C@@]2(C)[C@@H]3CC(C)(C)CC[C@]3(C)CC[C@]12C",
    "Unit Label": "µM",
    "Reported Value": 118
  },
  {
    "Molecule": "N#Cc1c[nH]cc1-c1cccc2c1OC(F)(F)O2 [FLUDIOXONIL]",
    "Unit Label": "µM",
    "Reported Value": 17.8
  }
]

====

System: Fusarium tucumaniae
Procedure Text: Antifungal activity against Fusarium tucumaniae measured after 24 to 48 hrs by turbidimetry
Assay type: functional
Recorded Conditions: time 24-48 hrs
Endpoint Label: MIC (µM)

[
  {
    "Mol Smiles": "CC(=O)O[C@H]1CC[C@@H]([C@]2(C)CC[C@@]3(C)[C@@H]4CC(C)(C)CC[C@]4(C)CC[C@]3(C)[C@H]2CC=O)C(=O)C1(C)C",
    "Endpoint Label": "MIC",
    "Reported Value": 49.9
  },
  {
    "Mol Smiles": "COC(=O)N(OC)c1ccccc1COc1ccn(-c2ccc(Cl)cc2)n1",
    "Endpoint Label": "MIC",
    "Reported Value": 1.01
  },
  {
    "Mol Smiles": "CC1(C)CC[C@]2(C)CC[C@]3(C)[C@H]4CC=C5[C@@H](Cc6cnoc6C5(C)C)[C@]4(C)CC[C@@]3(C)[C@@H]2C1",
    "Endpoint Label": "MIC",
    "Reported Value": 55.8
  },
  {
    "Mol Smiles": "CC1(C)CC[C@]2(C)CC[C@]3(C)[C@H]4CC=C5C(=Cc6n[nH]c(=S)nc6C5(C)C)[C@]4(C)CC[C@@]3(C)[C@@H]2C1",
    "Endpoint Label": "MIC",
    "Reported Value": 102
  },
  {
    "Mol Smiles": "CC1(C)CC[C@]2(C)CC[C@]3(C)[C@H]4CC=C5C(C)(C)C(=O)CC[C@@]5(O)[C@]4(C)CC[C@@]3(C)[C@@H]2C1",
    "Endpoint Label": "MIC",
    "Reported Value": 113
  }
]

====

This section presents compounds with their documented MIC values.
System: Fusarium graminearum
Procedure Text: Antifungal activity against Fusarium graminearum measured after 24 to 48 hrs by turbidimetry
Assay type: functional
Recorded Conditions: time 24-48 hrs

[
  {
    "Mol Smiles": "Cc1cc2c(c(C)c1O)CC[C@H]1[C@@]2(C)CC[C@@]2(C)[C@@H]3CC(C)(C)CC[C@]3(C)CC[C@]12C",
    "MIC": "> 50 µg/mL"
  },
  {
    "Mol Smiles": "CC1(C)CC[C@]2(C)CC[C@]3(C)[C@H]4CC=C5[C@@H](CCC(=O)C5(C)C)[C@]4(C)CC[C@@]3(C)[C@@H]2C1",
    "MIC": "118 µM"
  },
  {
    "Mol Smiles": "CC1(C)CC[C@]2(C)CC[C@]3(C)[C@H]4CC=C5C(=Cc6nc7ccccc7nc6C5(C)C)[C@]4(C)CC[C@@]3(C)[C@@H]2C1",
    "MIC": "> 50 µg/mL"
  },
  {
    "Mol Smiles": "CC1(C)CC[C@]2(C)CC[C@]3(C)c4ccc5c(c4CC[C@@]3(C)[C@@H]2C1)C=C(Br)C(=O)C5(C)C",
    "MIC": "51.7 µM"
  },
  {
    "Mol Smiles": "CC1(C)CC[C@]2(C)CC[C@]3(C)[C@H]4CC=C5[C@@H](Cc6cnoc6C5(C)C)[C@]4(C)CC[C@@]3(C)[C@@H]2C1",
    "MIC": "> 50 µg/mL"
  },
  {
    "Mol Smiles": "CC1(C)CC[C@]2(C)CC[C@]3(C)[C@H]4CC=C5C(=Cc6n[nH]c(=S)nc6C5(C)C)[C@]4(C)CC[C@@]3(C)[C@@H]2C1",
    "MIC": "50.8 µM"
  }
]

====

Test system: Fusarium graminearum
Procedure Text: Antifungal activity against Fusarium graminearum measured after 24 to 48 hrs by turbidimetry
Assay type: functional
Recorded Conditions: time 24-48 hrs
This section presents compounds with their documented MIC values.

[
  {
    "Mol Smiles": "N#Cc1c[nH]cc1-c1cccc2c1OC(F)(F)O2",
    "MIC": "17.8 µM"
  },
  {
    "Mol Smiles": "CC1(C)CC[C@]2(C)CC[C@]3(C)[C@H]4CC=C5[C@@H](CC[C@H](O)C5(C)C)[C@]4(C)CC[C@@]3(C)[C@@H]2C1",
    "MIC": "> 50 µg/mL"
  },
  {
    "Mol Smiles": "CC1(C)CC[C@]2(C)CC[C@]3(C)[C@H]4CC=C5[C@@H](Cc6sc(N)nc6C5(C)C)[C@]4(C)CC[C@@]3(C)[C@@H]2C1",
    "MIC": "> 50 µg/mL"
  }
]

====

This section presents compounds with their documented MIC values.
Tested on: Fusarium graminearum
Procedure Text: Antifungal activity against Fusarium graminearum measured after 24 to 48 hrs by turbidimetry
Assay type: functional
Recorded Conditions: time 24-48 hrs

[
  {
    "Mol Smiles": "CC1(C)CC[C@]2(C)CC[C@]3(C)[C@H]4CC=C5[C@@H](Cc6cnn(-c7nc8ccccc8s7)c6C5(C)C)[C@]4(C)CC[C@@]3(C)[C@@H]2C1",
    "Unit Label": "µM",
    "MIC": 85.9
  },
  {
    "Mol Smiles": "CC(=O)O[C@H]1CC[C@@H]([C@]2(C)CC[C@@]3(C)[C@@H]4CC(C)(C)CC[C@]4(C)CC[C@]3(C)[C@H]2CC=O)C(=O)C1(C)C",
    "Unit Label": "µM",
    "MIC": 99.8
  }
]

====

System: Fusarium tucumaniae
Procedure Text: Antifungal activity against Fusarium tucumaniae measured after 24 to 48 hrs by turbidimetry
Format: functional
Recorded Conditions: time 24-48 hrs
Endpoint Label: MIC (µM)

[
  {
    "Mol Smiles": "CC1(C)CC[C@]2(C)CC[C@]3(C)[C@H]4C=CC5=C(C=CC(=O)C5(C)C)[C@]4(C)CC[C@@]3(C)[C@@H]2C1",
    "Measured On": "Fusarium tucumaniae",
    "Endpoint Label": "MIC",
    "Unit Label": "µM",
    "Reported Value": 119
  },
  {
    "Mol Smiles": "CC1(C)CC[C@]2(C)CC[C@]3(C)[C@H]4CC=C5[C@@H](CC(Br)(Br)C(=O)C5(C)C)[C@]4(C)CC[C@@]3(C)[C@@H]2C1",
    "Measured On": "Fusarium tucumaniae",
    "Endpoint Label": "MIC",
    "Unit Label": "µM",
    "Reported Value": 85.9
  }
]
